System: CP185
Assay: qHTS profiling for inhibitors of Plasmodium falciparum proliferation (AID 504749); further: nearly all actives have a fitted effect of over 60% in size
Details: P. falciparum in erythrocytes, SYBR Green DNA, 72 h; series mostly up to 28.7 µM
Inconclusive results are not listed. Calls of active or inactive are those of the source. The call rests on the fitted dose curve; in most records, active means well fitted inhibition curve with a large enough effect; inconclusive means small, poorly fitted or top-dose-only effect; inactive means flat fitted curve, though single readings scatter.
Classes used: Yes (active), No (inactive)

molecule	target of assay	label class
NC(=O)CN1CC(O)CC1=O (stereo unspecified)	CP185	No
O=C(O)C(Cl)Cl	CP185	No
C#CC1(O)CCC2C3CCC4=CC(=O)CCC4(C)C3CCC21C (stereo unspecified)	CP185	No
CC(=O)[O][Hg][c]1ccccc1	CP185	Yes
O=C(O)COc1ccccc1	CP185	No
CN(C)[C@@H]1C(=O)C(C(N)=O)=C(O)[C@@]2(O)C(=O)C3=C(O)c4c(O)cccc4[C@@](C)(O)[C@H]3[C@H](O)[C@@H]12	CP185	No

###

Test: Quantitative High-Throughput drug screen in 47 multiple myeloma cell lines against the NCATS MIPE library collection: FR4_PLB cell viability assay (AID 1918924; further: nearly all actives have a fitted effect of over 35% in size; further: potency means the concentration at half of the fitted maximal effect)
Conditions: FR4_PLB myeloma cells viability, CellTiter-Glo ATP, 48 h; series mostly up to 45.8 µM
Inconclusive results are not listed. The source made the active and inactive calls. The call rests on the fitted dose curve; in most records, active means well fitted cell-killing curve with a large enough effect; inconclusive means small, poorly fitted or top-dose-only effect, or effect the other way; inactive means no such curve, though single readings can be large or run the other way.
measurement name: Potency

compound	obs value
Cc1ccccc1-n1c(Cn2cnc3c(N)ncnc32)nc2cccc(C)c2c1=O	6.62 µM (active)
CC(=O)Nc1ccc(OC[C@](C)(O)C(=O)Nc2ccc([N+](=O)[O-])c(C(F)(F)F)c2)cc1	inactive
CCOC(=O)Nc1ccc(NCc2ccc(F)cc2)cc1N	inactive
CN1CCN(c2ccc([N+](=O)[O-])c3no[n+]([O-])c23)CC1	20.9 µM (active)
O=[N+]([O-])c1ncc[nH]1	inactive
CC1=C(O)C(=O)C=C2C1=CC=C1[C@@]2(C)CC[C@@]2(C)[C@@H]3C[C@](C)(C(=O)O)CC[C@]3(C)CC[C@]12C	0.743 µM (active)
CC(C)(C)c1cc(C=C(C#N)C#N)cc(Br)c1O	26.4 µM (active)
Clc1ccccc1C(c1ccccc1)(c1ccccc1)n1cccn1	inactive
CC(=O)O[C@@]12CO[C@H]1C[C@H](O)[C@@]1(C)C(=O)[C@H](O)C3=C(C)[C@@H](O)C[C@@](O)([C@@H](OC(=O)c4ccccc4)[C@@H]21)C3(C)C	1.05 µM (active)
CN(C)[C@@H]1C(=O)C(C(N)=O)=C(O)[C@@]2(O)C(=O)C3=C(O)c4c(O)cccc4[C@@](C)(O)[C@H]3[C@H](O)[C@@H]12	inactive
CN[C@@H]1Cc2cccc3[nH]c(=O)n(c23)C1	11.8 µM (active)
Cc1ccccc1-n1c(Cn2ncc3c(N)ncnc32)nc2cccc(C)c2c1=O	4.69 µM (active)
CCN1CCN(C(=O)Cc2ccc(Nc3ncc(F)c(Nc4ccc(C(=O)Nc5ccccc5Cl)cc4)n3)cc2)CC1	3.72 µM (active)
N#C[C@H](O[C@@H]1O[C@H](CO[C@@H]2O[C@H](CO)[C@H](O)[C@H](O)[C@H]2O)[C@H](O)[C@H](O)[C@H]1O)c1ccccc1	20.9 µM (active)
NC1=NC(=O)N2CC12 (centres undefined)	inactive
CCCCCC[C@H]1C(=O)O[C@H](C)[C@H](NC(=O)c2cccc(NC=O)c2O)C(=O)O[C@@H](C)[C@@H]1OC(=O)CC(C)C	0.0662 µM (active)
COc1ccc(N(C(=O)Oc2c(C)cccc2C)c2ccnc(Nc3ccc(N4CCN(C)CC4)cc3)n2)c(OC)c1	2.64 µM (active)
CC=C(C)C(=O)N[C@@H](c1ccccc1)[C@@H](O)C(=O)O[C@H]1C[C@@]2(O)[C@@H](OC(=O)c3ccccc3)[C@@H]3[C@]4(OC(C)=O)CO[C@@H]4C[C@H](O)[C@@]3(C)C(=O)[C@H](OC(C)=O)C(=C1C)C2(C)C	inactive
C[C@@]12OC(=O)[C@]1([C@@H](O)[C@@H]1C=CCCC1)NC(=O)[C@H]2CCCl	0.0053 µM (active)
C[C@]12CCC(=O)C(O)=C1CC[C@@H]1[C@H]3CCC(=O)[C@@]3(C)CC[C@@H]12	inactive
Cc1c(C(=O)Nc2cccc(C(F)(F)F)c2)cc(-c2ccccc2)n1CCCN1CCOCC1	23.5 µM (active)
C[C@](O)(COc1ccc(C#N)cc1)C(=O)Nc1ccc(C#N)c(C(F)(F)F)c1	inactive
COc1cccc2c1[C@]13CCN(CC4CC4)[C@H](C2)[C@]1(OC)CCC(=O)C3	inactive
CCOC(=O)c1c(C(C#N)=CN)c2ccc(Cl)c(Cl)c2n1C	inactive
C[C@H]1CCCC=CC2C[C@H](O)C[C@@H]2[C@H](O)C=CC(=O)O1 (some centres undefined)	inactive
C[C@]12CC[C@H]3[C@@H](CCC4=CC(=O)CC[C@@]43C)[C@H]1CC[C@H]2O	inactive
COC1=CC(C)=C[C@@H](C)[C@@H](O)[C@@H](C)CC(C)=CC=C[C@H](OC)[C@H]([C@@H](C)[C@@H](O)[C@H](C)[C@@]2(O)C[C@@H](O)[C@H](C)[C@@H](C(C)C)O2)OC1=O	0.0042 µM (active)
Cc1[nH]nc2ccc(-c3cncc(OC[C@@H](N)Cc4c[nH]c5ccccc45)c3)cc12	0.833 µM (active)
COc1ccc2c(c[n+](C)c3c4cc5c(cc4ccc23)OCO5)c1OC	4.18 µM (active)
CC(=CCCC1=CCC(C2=CC(=O)OC2O)OC1O)CCC1=C(C)CCCC1(C)C (centres undefined)	inactive
O=S(=O)(F)Cc1ccccc1	inactive
CC(C)(O)C=CC(=O)[C@](C)(O)[C@H]1[C@H](O)C[C@]2(C)[C@@H]3CC=C4[C@@H](C=C(O)C(=O)C4(C)C)[C@]3(C)C(=O)C[C@@]12C	0.0469 µM (active)
CCN1C[C@]2(OC(=O)c3ccccc3NC(C)=O)CC[C@H](OC)[C@@]34[C@H]5CC6[C@@H](OC)C[C@](O)(C(C[C@@H]23)[C@@H]14)[C@@]5(O)[C@@H]6OC	inactive
COc1cc2cc(c1Cl)N(C)C(=O)C[C@H](OC(=O)C(C)C)[C@]1(C)O[C@H]1[C@H](C)[C@@H]1C[C@@](O)(NC(=O)O1)[C@H](OC)C=CC=C(C)C2	inactive

###

Experiment: qHTS for Inhibitors of the Functional Ribonucleoprotein Complex (vRNP) of Lymphocytic Choriomeningitis Arenaviruses (LCMV): Viability assay - alamar blue signal for LCMV Primary Screen (AID 1347085); further: nearly all actives have a fitted effect of over 80% in size
Details: alamar blue viability counter-screen, LCMV vRNP screen cells; series mostly up to 57.5 µM
Inconclusive results are not listed. Active and inactive are the calls of the source. Calls follow the shape of the full dose curve; tested in HEK293 reporter line.
Classes used: active, inactive

compound	label class
Cc1ccccc1N=Nc1ccc(N=Nc2c(O)ccc3ccccc23)c(C)c1	inactive
CC(C)OC(=O)c1cc(C(=O)OC(C)C)cc([N+](=O)[O-])c1	inactive
C[C@@H](O[C@H]1OCCN(Cc2n[nH]c(=O)[nH]2)[C@@H]1c1ccc(F)cc1)c1cc(C(F)(F)F)cc(C(F)(F)F)c1	inactive
CC(=O)OCCN1C(=O)c2c(C)nc3ccc(S(=O)(=O)N4CCOCC4)cc3c2C1=O	inactive
CC[C@H]1C=CC=CC[C@@H](C)[C@H](O)[C@@](C)(O)C(=O)[C@@H](C)[C@H](O)[C@@H](C)C(=O)[C@@H](C)[C@H](O)[C@@H](C)C=CC(=O)O[C@@H]2[C@@H](C)[C@H](CC1)O[C@]1(CC[C@H](C)[C@H](C[C@@H](C)O)O1)[C@H]2C	active
C[C@@H](N)C1CCC(C(=O)Nc2ccncc2)CC1 (stereo partly drawn)	active
C=C1C(=CC=C2CCCC3(C)[C@@H]([C@H](C)C=CC=CC(O)(CC)CC)CC[C@@H]23)C[C@@H](O)C[C@@H]1O (stereo partly drawn)	inactive
NCCc1c[nH]c2ccc(O)cc12	inactive

###

Tested on: KB-3-1
Assay: Cytotoxic Profiling of Annotated Libraries Using Quantitative High-Throughput Screening (AID 1296008); further: on the % scale 0 is the no-effect control and ±100 the full control effect; nearly all actives have a fitted effect of over 60% in size
Conditions: Five cell lines viability, CellTiter-Glo ATP luminescence, 48-72 h; active compounds read low
Results filed as inconclusive are left out.
measurement name: max response (%)

compound	target of assay	obs value
Nc1ccc(Cl)cc1	KB-3-1	-17.1
ClC1=C(Cl)[C@]2(Cl)[C@@H]3[C@@H]4C[C@@H]([C@H]5O[C@@H]45)[C@@H]3[C@@]1(Cl)C2(Cl)Cl	KB-3-1	13.3
CCCCc1ccc(C(=O)O)nc1	KB-3-1	2.2
COc1ccc2c(c1)[C@]13CCCCC1C(C2)N(C)CC3 (stereo partly drawn)	KB-3-1	9.18
Nc1ccc(Cl)cc1N	KB-3-1	-2.75
O=S(=O)(O)C(F)(F)C(F)(F)C(F)(F)C(F)(F)C(F)(F)C(F)(F)C(F)(F)C(F)(F)F	KB-3-1	-10.5
CC(C)(O)C(=O)Nc1ccc([N+](=O)[O-])c(C(F)(F)F)c1	KB-3-1	-3.83
O=C(O)c1cc(Oc2ccc(C(F)(F)F)cc2Cl)ccc1[N+](=O)[O-]	KB-3-1	-8.96
